ASSAY_PROTOCOL: Clinical pharmacokinetic study, plasma and urine, noncompartmental analysis
CONDITION_NOTES: both, human, plasma, po, 2.5 mg, AUC0–12h, Baseline: oral midazolam 2.5 mg alone; geometric mean [90% CI]
REPORTED_METRIC: AUC(0-t) (nM·h)
Your answer is read as nM·h, so omit the unit and give the number.

Report AUC(0-t), nothing else, for this compound: Cc1ncc2n1-c1ccc(Cl)cc1C(c1ccccc1F)=NC2O (stereo not shown) [4-Hydroxymidazolam, 4-hydroxymidazolam]
2.78

---

ASSAY_PROTOCOL: Clinical pharmacokinetic study, plasma and urine, noncompartmental analysis
CONDITION_NOTES: both, human, plasma, po, 2.5 mg, tmax, Baseline: oral midazolam 2.5 mg alone; median [range]
REPORTED_METRIC: tmax (h)
Your answer is read as h, so omit the unit and give the number.

Report tmax, nothing else, for this molecule: Cc1ncc2n1-c1ccc(Cl)cc1C(c1ccccc1F)=NC2O (stereo not shown) [4-Hydroxymidazolam, 4-hydroxymidazolam]
1

---

ASSAY_PROTOCOL: Clinical pharmacokinetic study, plasma and urine, noncompartmental analysis
CONDITION_NOTES: both, human, plasma, po, 2.5 mg, t1/2, Baseline: oral midazolam 2.5 mg alone; geometric mean [90% CI]
REPORTED_METRIC: half-life (h)
Your answer is read as h, so omit the unit and give the number.

Report half-life, nothing else, for this molecule: Cc1ncc2n1-c1ccc(Cl)cc1C(c1ccccc1F)=NC2O (stereo not shown) [4-Hydroxymidazolam, 4-hydroxymidazolam]
1.68

---

ASSAY_PROTOCOL: clinical
CONDITION_NOTES: both, human, in vivo, AUC0–12.5h, Observed
REPORTED_METRIC: AUC(0-t) (nM·h)
Your answer is read as nM·h, so omit the unit and give the number.

Report AUC(0-t), nothing else, for this compound: COc1ccc2cc3[n+](cc2c1OC)CCc1cc2c(cc1-3)OCO2 [berberine]
4.58
